This collection of values is drawn from patent US20220242950A1.

# System Under Test: T1, human IL1RAP on the cell surface (human, UniProt Q9NPH3 21-570)
# T1 sequence (looked up): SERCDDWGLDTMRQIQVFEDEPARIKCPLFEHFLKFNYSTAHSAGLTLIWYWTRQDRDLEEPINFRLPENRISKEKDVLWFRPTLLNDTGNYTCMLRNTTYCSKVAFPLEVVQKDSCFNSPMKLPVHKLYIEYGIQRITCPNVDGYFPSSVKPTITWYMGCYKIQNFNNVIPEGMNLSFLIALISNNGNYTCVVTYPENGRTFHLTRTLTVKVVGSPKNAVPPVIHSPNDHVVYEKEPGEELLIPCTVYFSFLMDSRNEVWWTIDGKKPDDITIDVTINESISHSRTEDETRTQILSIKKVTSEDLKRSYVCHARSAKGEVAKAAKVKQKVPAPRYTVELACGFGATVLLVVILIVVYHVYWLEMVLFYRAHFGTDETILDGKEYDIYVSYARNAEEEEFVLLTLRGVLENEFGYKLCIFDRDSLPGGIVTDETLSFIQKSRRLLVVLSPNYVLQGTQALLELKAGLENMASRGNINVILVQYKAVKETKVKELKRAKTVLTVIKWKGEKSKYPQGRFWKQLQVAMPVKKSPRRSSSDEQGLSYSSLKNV
# Assay Info: cell-based or functional assay
Listed binders paired with reported IC50 of IL-33 signaling (HEK-Blue assay)
Your answer should be a plain number; it is taken to be in nM.

h48D2 VH2:VL2 (antibody, human IgG1, kappa, L234A L235A, V domains shown, Humanized; also called VL2:VH2) VH: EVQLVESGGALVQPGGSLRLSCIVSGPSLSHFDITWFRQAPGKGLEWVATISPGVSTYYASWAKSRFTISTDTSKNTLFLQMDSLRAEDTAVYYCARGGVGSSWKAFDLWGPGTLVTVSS VL: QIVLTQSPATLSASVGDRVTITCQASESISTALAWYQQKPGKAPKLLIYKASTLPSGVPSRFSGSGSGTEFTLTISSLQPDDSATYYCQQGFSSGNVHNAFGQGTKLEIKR :: 45.8
h48D2 VH3:VL5 (antibody, human IgG1, kappa, L234A L235A, V domains shown, Humanized; also called VL5:VH3) VH: EVQLLESGGGLVLPGGSLRLSCAASGPSLSHFDITWVRQAPGKGLEWVSTISPGVSTYYASWAKSRFTISRDNSKNTLYLQMSSLRAEDTAVYYCARGGVGSSWKAFDLWGLGTTVTVSS VL: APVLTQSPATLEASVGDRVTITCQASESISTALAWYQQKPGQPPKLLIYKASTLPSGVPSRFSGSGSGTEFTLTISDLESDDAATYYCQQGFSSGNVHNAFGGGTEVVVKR :: 474
h48D2 VH3:VL2 (antibody, human IgG1, kappa, L234A L235A, V domains shown, Humanized; also called VL2:VH3) VH: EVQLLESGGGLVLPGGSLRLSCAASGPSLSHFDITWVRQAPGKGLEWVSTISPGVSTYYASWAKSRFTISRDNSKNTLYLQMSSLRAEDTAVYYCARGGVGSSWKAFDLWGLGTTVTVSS VL: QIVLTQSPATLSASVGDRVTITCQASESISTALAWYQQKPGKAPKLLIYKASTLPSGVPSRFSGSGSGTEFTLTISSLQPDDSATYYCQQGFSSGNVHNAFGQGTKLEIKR :: 474
h48D2 VH2:VL5 (antibody, human IgG1, kappa, L234A L235A, V domains shown, Humanized; also called VL5:VH2) VH: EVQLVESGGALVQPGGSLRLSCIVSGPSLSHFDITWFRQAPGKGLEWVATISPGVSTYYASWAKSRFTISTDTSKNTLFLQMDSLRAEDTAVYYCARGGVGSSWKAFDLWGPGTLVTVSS VL: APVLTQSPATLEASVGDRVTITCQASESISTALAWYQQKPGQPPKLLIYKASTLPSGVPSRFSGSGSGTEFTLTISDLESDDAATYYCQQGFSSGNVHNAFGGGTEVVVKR :: 183

Proceeding to the next binder to report its IC50 of IL-33 signaling (HEK-Blue assay).
Query string: Dear colleague, I am looking for the recorded IC50 of IL-33 signaling (HEK-Blue assay) of the following binder: h48D2 VH1:VL3 (antibody, human IgG1, kappa, L234A L235A, V domains shown, Humanized; also called VL3:VH1) VH: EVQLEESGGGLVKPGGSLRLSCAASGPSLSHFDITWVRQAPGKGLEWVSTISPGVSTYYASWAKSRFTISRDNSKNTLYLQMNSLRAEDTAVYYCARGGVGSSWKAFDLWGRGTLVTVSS VL: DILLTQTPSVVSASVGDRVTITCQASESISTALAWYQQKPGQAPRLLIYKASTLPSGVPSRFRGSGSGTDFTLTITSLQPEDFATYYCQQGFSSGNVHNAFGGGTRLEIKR
Result string: 195
